Values compiled from PubChem BioAssay (NCI).

Entries and their growth
# Tested on: HS 578T breast
# PROTOCOL_DETAILS: NCI-60 one-dose screen, 48 h (100 = growth as untreated, 0 = no growth, -100 = all killed)
# EXPERIMENTAL_SETUP: 10 µM unless noted
Compounds without any hit were thinned out: in the full panel of roughly 83,000, 20% have a hit.
Respond with the bare value in %.

| MOLECULE | PARAMETER | RESULT |
| --- | --- | --- |
| Cc1nccc2c3ccc(OCc4cn(Cc5ccc(Br)cc5)nn4)cc3n(CCCc3ccccc3)c12 | growth | 66.9 |
| COc1ccccc1N1CCN(CC(O)COc2c(Br)c(Br)c(Br)c3c2OC(C)(C)C3)CC1 (stereo not given) | growth | 67.3 |
| CN(C)CCS(=O)(=O)Nc1cc(-c2ccc3ncnc(Nc4ccc(F)c(Cl)c4)c3c2)cnc1Cl | growth | -7.53 |
| Cc1cccc(NCS(=O)(=O)O)c1 | growth | 104 |
| Cc1ccc2oc(=O)cc(C3C(C#N)=C(N)Oc4c3ccc3ccccc43)c2c1 (stereo not given) | growth | 85.5 |
| Cc1cn(C2CC(F)C(CO)O2)c(=O)[nH]c1=O (stereo not given) | growth | 133 |
| Nc1n[nH]c2cccc(C#Cc3cccc(NC(=O)c4cccc(C(F)(F)F)c4)c3)c12 | growth | -0.652 |
| S=C=NP1(N=C=S)=NP(N=C=S)(N=C=S)=NP(N=C=S)(N=C=S)=NP(N=C=S)(N=C=S)=N1 (stereo not given) | growth | 98.5 |
| CCn1cc(C(=O)O)c(=O)c2cc(F)c(N3CCN(CC(=O)Nc4ccc(C(C)=O)cc4)CC3)cc21 | growth | 101 |

Next:
Given CC(Cc1cccc(C(F)(F)F)c1)NCCOC(=O)c1ccccc1 (stereo not given) , state its recorded growth.
101

###

# System: A549/ATCC NSCLC
# PROTOCOL_DETAILS: NCI-60 one-dose screen, 48 h (100 = growth as untreated, 0 = no growth, -100 = all killed)
# EXPERIMENTAL_SETUP: 10 µM unless noted
This is part of a sample that, as a whole, favours compounds with a hit. Of some 83,000 tested, about 20% had one in any assay.
PARAMETER: growth (%)
Answer format: numeric, % implied, no suffix.

| SMILES_STRING | growth (%) |
| --- | --- |
| COc1cc(-c2nc(N)n(CC(=O)Nc3ccc(/C(C)=N\O)cc3)n2)cc(OC)c1OC | 74.2 |
| COc1ccc(Cn2cc3c(c2-c2cc(OC)c(OC)c(OC)c2)CCc2c(CO)noc2-3)cc1 | 32.5 |
| COc1cc2ncnc(Oc3ccc(NC(=O)Nc4ccc(CN5CCOCC5)c(C(F)(F)F)c4)c4ccccc34)c2cc1OC | 23.1 |

We next turn to a different compound, shown below.
// lookup growth for CO[C@H]1/C=C/C=C/C=C/C[C@H](OC(=O)[C@@H](C)NC(=O)C2CCCCC2)[C@H](C)[C@@H](O)/C(C)=C\CCC2=CC(=O)C=C(NC(=O)C1)C2=O
-5.23

###

# Tested on: HCT-15 colon
# PROTOCOL_DETAILS: NCI-60 one-dose screen, 48 h (100 = growth as untreated, 0 = no growth, -100 = all killed)
# EXPERIMENTAL_SETUP: 10 µM unless noted
This is part of a sample that, as a whole, favours compounds with a hit. Of some 83,000 tested, about 20% had one in any assay.
// values below are reported growth
Your answer should be a plain number; it is taken to be in %.

Here are 10 molecules together with their reported answers.
| MOLECULE | SYSTEM_NAME | growth [%] |
| --- | --- | --- |
| NC(N)=N/N=C/c1ccc([N+](=O)[O-])cc1 | HCT-15 colon | 105 |
| Cc1cc(-c2ccccc2)nc2ccccc12 | HCT-15 colon | 97.5 |
| COc1cc(-c2nc(N)n(CC(=O)Nc3ccc(/C(C)=N\O)cc3)n2)cc(OC)c1OC | HCT-15 colon | 101 |
| Nc1ccc(S(=O)(=O)Nc2ccnn2-c2ccccc2)cc1 | HCT-15 colon | 100 |
| O=C(COc1ccc(Cl)cc1)N1CCN(Cc2ccc3c(c2)OCO3)CC1 | HCT-15 colon | 96.8 |
| CC(=O)Nc1ccc([I+]c2ccc([N+](=O)[O-])cc2)cc1 | HCT-15 colon | 100 |
| O=C(C[n+]1ccccc1Cl)c1ccc2c(c1)CCCC2 | HCT-15 colon | 102 |
| COCCNC(C(=O)c1ccccc1)c1ccccc1 (stereo not given) | HCT-15 colon | 99.6 |
| O=C(O)c1cn(C2CC2)c2cc(N3CCN(C(=O)CSc4nc(NS(=O)(=O)c5ccccc5)cc(=O)[nH]4)CC3)c(F)cc2c1=O | HCT-15 colon | 94.9 |
| COc1ccc(C2=NN(C(=O)COc3ccc(Cl)cc3)C(O)(c3cc(F)c(Cl)cc3Cl)C2)cc1OC (stereo not given) | HCT-15 colon | 4.88 |

If you can, please state the reported growth value of Cc1ccccc1C[P+](c1ccccc1)(c1ccccc1)c1ccccc1 .
107

How about O=C(CNc1cccnc1)Nc1ccc(C(=O)/C=C/c2ccc(Cl)cc2)cc1 ?
88.6

What do you have for Cc1ccc(-c2cn3cc([N+](=O)[O-])ccc3n2)cc1 ?
80.2

Continue with CN[C@@H](CCCNC(N)=NC/C=C(/C)CCC=C(C)C)C(=O)N(C)[C@@H](CCCNC(N)=NCC=C(C)C)C(=O)N[C@H](C)[C@H](OS(=O)(=O)O)c1ccc(OS(=O)(=O)O)c(COS(=O)(=O)O)c1
113

CS(=O)(=O)Nc1cccc(-c2ccc3ncnc(Nc4ccc(F)c(Cl)c4)c3c2)c1 , same question.
1

Now give it for COc1ccc(N)c(S)c1 too.
97

Now consider Nc1nccc2c1ccn2-c1ccc(NC(=O)c2ccc(N3CCOCC3)c(C(F)(F)F)c2)cc1 and answer again.
14.1

###

# System: SK-MEL-2 melanoma
# PROTOCOL_DETAILS: NCI-60 one-dose screen, 48 h
# EXPERIMENTAL_SETUP: 10 µM unless noted
Compounds without any hit were thinned out: in the full panel of roughly 83,000, 20% have a hit. Active and inactive are the calls of the source. How the source made its calls: active means growth percent below 10; inactive means the rest.
Your reply should match one of these outcome classes. true (1) for active, false (0) for inactive

Recorded results for 3 molecules are shown here.
| SMILES_STRING | CAT |
| --- | --- |
| Cc1[nH]c2ccc(F)cc2c1CCNC(=O)C1CCN(C(=O)c2ccc(-c3ccccc3)cc2)CC1 | false (0) |
| COc1ccc(Cl)cc1NC(=O)c1cc2c([nH]1)-c1nc(N)sc1CCC2 | false (0) |
| C=C1c2c(Cl)ccc(O)c2C(O)=C2C(=O)[C@]3(O)C(O)=C(C(N)=O)C(=O)[C@@H](N(C)C)[C@@H]3[C@@H](O)[C@H]12 | true (1) |

Write down the call the test reported for this molecule. Item: O=C(N/N=C1\SCC(=O)N1c1ccccc1)c1cc(-c2cc3ccccc3o2)nn1-c1ccccc1
false (0)

Okay, and O=C(Nc1ccc(-n2ccc3c(NC(=O)c4ccccc4)nccc32)cc1)c1ccc(Cl)c(C(F)(F)F)c1 ?
false (0)

What would you report for COc1ccc(-c2ccc(NC(=O)Nc3ccc(Cl)c(C(F)(F)F)c3)c(C)n2)cc1 ?
false (0)

Would you mind doing C/C(=N/O)c1ccc(NC(=O)Cn2nc(-c3ccc(Cl)cc3)nc2N)cc1 as well?
false (0)

# iterate: C=C1C(=O)O[C@H]2[C@H]1CC/C(COC(=O)c1ccc3ccccc3c1)=C\CC[C@@]1(C)O[C@@H]21
true (1)

// repeat for COc1ccccc1NC(=O)COc1ccc(/C=C2/Oc3cc4occc4c(OC)c3C2=O)cc1OC and report
false (0)

###

Measured growth values are reported for all entries that follow.
# Tested on: UACC-62 melanoma
# PROTOCOL_DETAILS: NCI-60 one-dose screen, 48 h (100 = growth as untreated, 0 = no growth, -100 = all killed)
# EXPERIMENTAL_SETUP: 10 µM unless noted
Compounds without any hit were thinned out: in the full panel of roughly 83,000, 20% have a hit.
Give just the number in %; leave the unit off.

Reference set (6 entries):
| COMPOUND | growth (%) |
| --- | --- |
| COc1cc(/C=C2/Oc3cc4occc4c(OC)c3C2=O)ccc1OCC(=O)Nc1ccncc1 | 93.5 |
| COc1ccc(-c2nn(-c3ccc(NC(=O)Nc4ccc(Cl)c(C(F)(F)F)c4)cc3)cc2-c2ccncc2)cc1Cl | 0.79 |
| COC(=O)c1oc2c(C(C)=O)c(OCCCN(C)C)ccc2c1C | 98.8 |
| CCNc1ncnc2n[nH]nc12 | 99.3 |
| O=C(O)c1cn(C2CC2)c2cc(N3CCN(C(=O)CSc4nc(NS(=O)(=O)c5ccccc5)cc(=O)[nH]4)CC3)c(F)cc2c1=O | 83.8 |
| C=C1c2c(Cl)ccc(O)c2C(O)=C2C(=O)[C@]3(O)C(O)=C(C(N)=O)C(=O)[C@@H](N(C)C)[C@@H]3[C@@H](O)[C@H]12 | 7.11 |

Next, consider the following compound.
Find the recorded growth belonging to COc1ccc(-c2ccc(NC(=O)Nc3cccc(C(F)(F)F)c3)c(C)n2)cc1 and report it.
63.9
